system: plasma Factor VII enzyme activity; assay: Mouse Factor VII dosing / Factor VII Activity Assay; assay type: in vivo; settings: percent knock down of plasma Factor VII activity; CD-1 mice, single IV dose 0.03 mg/kg, 48 h; LNP Chol/DSPC/S010 45/44/9/2
Threshold check on KD FVII 0.03 mg/kg: strictly below 50% is 1; on or above 50% is -1.

>>> print(df.to_string())
                                   compound  answerlabel
0  CCCCCCCCCCCC(=O)OCCCCCCOc1cc(CN(C)C)cc(OCCCCCCOC(=O)CCCCCCCCCCC)c1 [Example 59]            1
1  CCCCCCCCCCCCCC(=O)OCCCCOc1cc(CN(C)C)cc(OCCCCOC(=O)CCCCCCCCCCCCC)c1 [Example 61]            1
2  CCCCCCCCCC(=O)OCCCCCCCCOc1cc(CN(C)C)cc(OCCCCCCCCOC(=O)CCCCCCCCC)c1 [Example 52]           -1
3  CCCCCCCC(=O)OCCCCCCCCCC(=O)OCc1cc(COC(=O)CCCCCCCCCOC(=O)CCCCCCC)cc(CN(C)C)c1 [Example 86]            1
4  CC/C=C\C/C=C\C/C=C\CCCCCCCC(=O)OCCCCOc1cc(CN(C)C)cc(OCCCCOC(=O)CCCCCCC/C=C\C/C=C\C/C=C\CC)c1 [Example 62]           -1
5  CCCCC/C=C\C/C=C\CCCCCCCC(=O)OCCCCOc1cc(CN(C)C)cc(OCCCCOC(=O)CC(CCCCCCCC)CCCCCCCC)c1 [Ex. 109]           -1
6  CCCCC/C=C\C/C=C\CCCCCCCCOc1cc(CN(C)C)cc(OCCCCCCCC/C=C\C/C=C\CCCCC)c1 [Example 2]           -1

----------
Experiment: Particle size of lipid nanoparticle (dynamic light scattering, Malvern Zetasizer)
Assay type: physicochemical
Settings: leptin mRNA lipid nanoparticles
Source text: The lipid nanoparticles have a size of about 1 to about 2,500 nm, about 1 to about 1,500 nm, about 1 to about 1,000 nm, in a sub-embodiment about 50 to about 600 nm, in a sub-embodiment about 50 to about 400 nm, in a sub-embodiment about 50 to about 250 nm, and in a sub-embodiment about 50 to about 150 nm. Unless indicated otherwise, all sizes referred to herein are the average sizes (diameters) of the fully formed nanoparticle, as measured by dynamic light scattering on a Malvern Zetasizer. […]
We begin with a simple list: items and their reported Size (nm).
endpointName: Size (nm)

                                   compound  endpointname  datavalue
0  CCCCCCCCCCCCOC(=O)CCCCCOc1cc(CN(C)C)cc(OCCCCCC(=O)OCCCCCCCCCCCC)c1 [Example 90]     Size (nm)   164.7 nm
1  CCCCCCCCCOC(=O)CCCCCCC(=O)OCc1cc(COC(=O)CCCCCCC(=O)OCCCCCCCCC)cc(CN(C)C)c1 [Example 79]     Size (nm)   140.5 nm
2  CCCCCCCC(=O)OCCCCCCCCCCOC(=O)CCC(=O)OCc1cc(COC(=O)CCC(=O)OCCCCCCCCCCOC(=O)CCCCCCC)cc(CN(C)C)c1 [Example 78]     Size (nm)   164.0 nm
3  CCCCCCCCCCOC(=O)CCCCCCCOc1cc(CN(C)C)cc(OCCCCCCCC(=O)OCCCCCCCCCC)c1 [Example 57]     Size (nm)   127.8 nm
